From: PubChem BioAssay (NCI)

Exercise: for every item that follows, state its recorded TGI.
# System: SF-268 CNS
# assay notes: NCI tumour cell line growth inhibition, 48 h
Numeric answer only, unit µM assumed.

Record request: TGI value, item COC1C=COC2(C)Oc3c(C)c(O)c4c(O)c(c(C5SCCS5)c(O)c4c3C2=O)NC(=O)C(C)=C/C=C\C(C)C2OC(C)(C)OC(C2C)C(C)C(OC(C)=O)C1C (configuration not stated)
29.3

Query (molecule): O=C1CSC(c2ccc(Cl)cc2Cl)N1c1ccc(F)cc1 (configuration not stated) ; field requested: TGI
32.2

// query TGI value for entry `COc1cccc(C#Cc2ccccc2C#CCCCCO)c1`
33.5

----------
# Tested on: HT29 colon
# assay notes: NCI tumour cell line growth inhibition, 48 h
measured parameter: TGI

Consider the compound shown here: `CC(C)=CCNc1ncnc2c1ncn2CCC#N` What is its recorded TGI?
> 100 µM

// query TGI value for entry `O=C1O[C@H](c2ccc3c(c2)OCO3)[C@H]2CO[C@@H](c3ccc4c(c3)OCO4)[C@@H]12`
> 100 µM

Quick one: TGI of `CCOC(=O)NC(=O)c1cn(CCCOC(=O)CCCCCCCCCCC(=O)OCCCn2cc(C(=O)NC(=O)OCC)c(=O)[nH]c2=O)c(=O)[nH]c1=O` ?
> 100 µM

Entry `Nc1nc(Cl)cc(NCC2(CO)CCCC2)n1` : reported TGI = ?
> 100 µM

Data request, read-out TGI, for `CC/C=C\C[C@H]1C/C=C2/C(=O)C=C[C@@H]2C/C=C\CCCC(=O)O1`
1.27 µM

Please report the recorded TGI for CC(C)CC(O)P(=O)(O)O (centres undefined) .
> 100 µM

# TGI lookup, item N#CC1CC2(C1)OCCS2 (centres undefined)
> 100 µM

Looking for the measured TGI of `COc1ccc(NS(=O)(=O)c2ccc(NC(NC(=O)CC(C)C)(C(F)(F)F)C(F)(F)F)cc2)nn1` , can you help?
> 100 µM

Suppose we examine the compound `Cc1ccc(S(=O)(=O)NC(=O)N[C@@H](Cc2cnc[nH]2)C(=O)O)cc1` ; what TGI value has been reported?
> 100 µM

I'd like to know its TGI. The compound in question is `COc1cc2c3c(c1OC)C1(C=CC(=O)C=C1)C[C@H]3N(C)CC2`
> 100 µM

Which measured TGI value corresponds to `Cc1ccc2[nH]c(O)c(N=Nc3ccc(S(N)(=O)=O)cc3)c2c1` ?
> 25 µM

Fill blank: measured TGI of the compound C[N+]12CCCCC1C(CN1C(=O)Cc3c4ccccc4c(c4ccccc34)CC1=O)CCC2 (centres undefined) is ____.
> 100 µM

// returns reported TGI for input CC(C)(C)C(=O)CC1=Nc2ccccc2SC1(O)CC(=O)C(C)(C)C (centres undefined)
31.5 µM

Recorded TGI of `O=c1oc2ccc([N+](=O)[O-])cc2c(Nc2ccc3c(c2)Oc2ccccc2O3)c1[N+](=O)[O-]` , please.
> 100 µM

----------
Could you please report measured TGI for the items listed next?
# System: A549 NSCLC
# assay notes: NCI tumour cell line growth inhibition, 48 h

Provide the documented TGI with A549 NSCLC as the system for `O=[N+]([O-])/C(C(Cl)=C(Cl)Cl)=C(\N1CCCCC1)n1cncn1`
39.8 µM

Quick check: TGI on A549 NSCLC, item `O=C1CCC(O)=C1N=Nc1ccccc1` ?
> 100 µM

GET /values?readout=TGI&system=A549 NSCLC&item= C=CCOc1ccc(C2(O)c3ccccc3C3=NCCCN32)cc1 (configuration not stated)
> 100 µM

Short answer please: TGI, A549 NSCLC, entry `COc1c(CCl)cc(-c2cc(=O)c3ccccc3s2)cc1CCl`
> 100 µM

Query for A549 NSCLC: what TGI does the record show for Cc1ccc2c(c1)C(=O)C1(C2)Cc2cccc(C)c2C1=O (configuration not stated) ?
> 100 µM

Param readout= TGI; system= A549 NSCLC; entry= NC(CCC(=O)NC(CSCC1C(=O)Nc2ccccc21)C(=O)NCC(=O)O)C(=O)O (configuration not stated) ; returns value.
19.7 µM

Hi! What's the reported TGI for `O=C1/C(=C/c2ccc(Cl)cc2)CSc2ccccc21` on A549 NSCLC?
> 100 µM

Hello, I am looking for reported TGI with A549 NSCLC for `O=c1c2ccccc2c(=O)c2c1[nH]c1c(-c3ccccc3)c(-c3ccccc3)c(=O)c12` . Could you help?
6.6 µM

Quick check: TGI on A549 NSCLC, item COc1c(C(C)C)cc2c3c1OC(=O)[C@@]31CCCC(C)(C)C1CC2 (some centres not stated) ?
60.1 µM

Find TGI (A549 NSCLC) for the entry O=C1OC2CCCC[C@@H]2C2C[C@]34CCCCC3[C@@H](C(=O)O4)C12 (some centres not stated)
> 100 µM

Request: TGI, test system A549 NSCLC, entry `COc1cc(/C=C/c2ccc(OC)c(OC)c2)cc(OC)c1`
> 100 µM

Can you look up TGI on A549 NSCLC for `CCOC(=O)c1ccc(C)c(N=NN(C)C)c1` ?
> 100 µM
